Overview of recorded IC50 for various molecules
# System: HT-29 colon adenocarcinoma cells
# Assay: cells
# Format: cell-based, human
# Condition Set: 24 h
*1 amine or outer side, *2 acyl side, *3 side chain or, on linkers, in order; H or OH if unused. Where a SMILES comes first, the peptide text is derived from it. [ ]: non-standard residue; d: D form. The star is where a group is joined. Quinoxaline2carbonyl = O=C(c1cnc2ccccc2n1)*; Ethylenediamine = C(CN[*:2])N[*:1]; Abu = CC[C@H](N)C(=O)O
Observation Type: IC50 (µM)

>>> numeric_value("CC[C@H](NC(=O)[C@@H](NC(=O)[C@@H](NC(=O)CNC(=O)[C@H]1CCCN1C(=O)[C@@H](NC(=O)[C@@H](NC(=O)[C@H](CC)NC(=O)[C@@H](CO)NC(=O)c1cnc2ccccc2n1)C(C)C)[C@@H](C)O)[C@@H](C)O)C(C)C)C(=O)NCCNC(=O)c1cnc2ccccc2n1 [RZ8] (Quinoxaline2carbonyl-[dS][Abu]VT[dP]GTV[Abu]-{Ethylenediamine-Quinoxaline2carbonyl})")
39.8
>>> numeric_value("CC[C@H](NC(=O)[C@H](CO)NC(=O)c1cnc2ccccc2n1)C(=O)N[C@H](C(=O)N[C@H](C(=O)N1CCC[C@@H]1C(=O)NCC(=O)N[C@H](C(=O)N[C@H](C(=O)N[C@@H](CC)C(=O)NCCNC(=O)c1cnc2ccccc2n1)C(C)C)[C@@H](C)CC)[C@@H](C)CC)C(C)C [RZ10] (Quinoxaline2carbonyl-S[Abu]VI[dP]GIV[Abu]-{Ethylenediamine-Quinoxaline2carbonyl})")
53.8

====

Overview of recorded IC50 for various compounds
# Test system: HeLa cervical adenocarcinoma cells
# Assay: cells
# Type: cell-based, human
# Condition Set: MTT assay, 24 h exposure, run in triplicate or greater; read-out: IC50, Cervix HeLa
*1 amine or outer side, *2 acyl side, *3 side chain or, on linkers, in order; H or OH if unused. Where a SMILES comes first, the peptide text is derived from it. Bridges are numbered along the chain shown (N, C = ends). Roman numbers before positions name the chains, in order. [ ]: non-standard residue; d: D form. The star is where a group is joined. 5FAM = O=C1OC2(c3ccc(O)cc3Oc3cc(O)ccc32)c2ccc(C(=O)*)cc21; Quinoxaline2carbonyl = O=C(c1cnc2ccccc2n1)*; Ethylenediamine = C(CN[*:2])N[*:1]; NMeV = CN[C@H](C(=O)O)C(C)C; NMeC = CN[C@@H](CS)C(=O)O; Abu = CC[C@H](N)C(=O)O; Dap = NC[C@H](N)C(=O)O
Observation Type: IC50 (µM)

>>> numeric_value("CC[C@H](NC(=O)[C@H](CO)NC(=O)c1cnc2ccccc2n1)C(=O)N[C@H](C(=O)N[C@H](C(=O)N1CCC[C@@H]1C(=O)NCC(=O)N[C@H](C(=O)N[C@H](C(=O)N[C@@H](CC)C(=O)NCCNC(=O)c1cnc2ccccc2n1)C(C)C)C(C)C)C(C)C)C(C)C [RZ2] (Quinoxaline2carbonyl-S[Abu]VV[dP]GVV[Abu]-{Ethylenediamine-Quinoxaline2carbonyl})")
2.7
>>> numeric_value("CC(C)[C@H]1C(=O)OC[C@@H](NC(=O)c2cnc3ccccc3n2)C(=O)N[C@@H](C)C(=O)N(C)[C@H]2CSSC[C@@H](C(=O)N1C)N(C)C(=O)[C@H](C)NC(=O)[C@H](NC(=O)c1cnc3ccccc3n1)COC(=O)[C@H](C(C)C)N(C)C2=O [Triostin A, reference compound] (I: Quinoxaline2carbonyl-[dS]A[NMeC][NMeV] / II: Quinoxaline2carbonyl-[dS]A[NMeC][NMeV]; ester I:1-II:C, I:C-II:1; disulfide I:3-II:3)")
18.8
>>> numeric_value("CC[C@H](NC(=O)[C@@H](NC(=O)[C@@H](NC(=O)CNC(=O)[C@H]1CCCN1C(=O)[C@@H](NC(=O)[C@@H](NC(=O)[C@H](CC)NC(=O)[C@@H](CO)NC(=O)c1cnc2ccccc2n1)C(C)C)C(C)C)C(C)C)C(C)C)C(=O)NCCNC(=O)c1cnc2ccccc2n1 [RZ4] (Quinoxaline2carbonyl-[dS][Abu]VV[dP]GVV[Abu]-{Ethylenediamine-Quinoxaline2carbonyl})")
30.9
>>> numeric_value("CC[C@H](NC(=O)[C@H](CNC(=O)c1ccc2c(c1)C(=O)OC21c2ccc(O)cc2Oc2cc(O)ccc21)NC(=O)c1cnc2ccccc2n1)C(=O)N[C@H](C(=O)N[C@H](C(=O)N1CCC[C@@H]1C(=O)NCC(=O)N[C@H](C(=O)N[C@H](C(=O)N[C@@H](CC)C(=O)NCCNC(=O)c1cnc2ccccc2n1)C(C)C)C(C)C)C(C)C)C(C)C [RZ2CF] (Quinoxaline2carbonyl-[Dap](5FAM)[Abu]VV[dP]GVV[Abu]-{Ethylenediamine-Quinoxaline2carbonyl})")
16.7
